Settings: buffer; pH 7.4; 200.0 µM
Parameter: solubility kinetic. Scope: all listed entries.

[in] Could you share which solubility kinetic value was measured for CC12CCC(=O)N1C(C(=O)Nc1ccccc1F)CS2 (centres undefined) ?
[out] > 44.2 µg/mL

[in] Could you share which solubility kinetic value was measured for `COc1cccc(OC)c1CN(C)C(=O)c1cnccc1C(F)(F)F` ?
[out] > 53.1 µg/mL

[in] Could you share which solubility kinetic value was measured for `Cc1ccc(Nc2nc(-c3ccccc3)cs2)nc1` ?
[out] < 0.2 µg/mL

Others:
[in] Could you share which solubility kinetic value was measured for `CCc1ccc(Nc2ccc(C(=O)O)cc2[N+](=O)[O-])cc1` ?
[out] > 42.9 µg/mL
